System tested: 5-lipoxygenase (Rattus norvegicus, UniProt P12527)
Construct: The supernatant solution (cytosol fraction) containing 5-lipoxygenase was stored; endogenous in cells; host or cells: RBL-1 rat basophilic leukemia cells, 105,000 x g supernatant (cytosol)
Sequence (P12527 whole entry): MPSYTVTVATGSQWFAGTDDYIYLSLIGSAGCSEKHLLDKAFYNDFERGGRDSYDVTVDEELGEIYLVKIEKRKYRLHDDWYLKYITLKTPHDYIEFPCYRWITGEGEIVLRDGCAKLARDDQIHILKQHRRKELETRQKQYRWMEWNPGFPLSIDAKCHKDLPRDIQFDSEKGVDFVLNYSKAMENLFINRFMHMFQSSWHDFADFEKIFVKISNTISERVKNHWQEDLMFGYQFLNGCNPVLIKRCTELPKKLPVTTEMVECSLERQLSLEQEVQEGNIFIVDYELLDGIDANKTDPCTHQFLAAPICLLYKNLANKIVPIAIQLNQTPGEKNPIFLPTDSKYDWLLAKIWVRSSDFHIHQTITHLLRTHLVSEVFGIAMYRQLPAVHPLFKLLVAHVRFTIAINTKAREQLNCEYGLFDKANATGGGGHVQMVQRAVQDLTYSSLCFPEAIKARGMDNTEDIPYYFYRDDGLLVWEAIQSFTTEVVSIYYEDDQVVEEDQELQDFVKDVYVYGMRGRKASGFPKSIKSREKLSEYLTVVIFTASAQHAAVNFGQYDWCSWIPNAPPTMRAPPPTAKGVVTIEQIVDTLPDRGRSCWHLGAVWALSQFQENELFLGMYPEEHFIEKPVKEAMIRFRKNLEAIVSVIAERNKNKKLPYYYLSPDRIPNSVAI
Test protocol: Inhibition of soluble 5-lipoxygenase in RBL-1 cell extract (cytosol 5-lipoxygenase of rat basophile leukemia cells; RBL)
Assay type: biochemical
Measurement setup: RBL-1 cell extract
pIC50: −log10 of the molar value.
Readout kind: pIC50

Compound	Readout kind	Quantitative result
C[C@@H](C#C[C@@H]1CC[C@@H](c2ccc(F)cc2)O1)N(O)C(N)=O	pIC50	5.45
NC(=O)N(O)CCCCC1CCC(c2ccc(F)cc2)O1 (stereo not shown)	pIC50	6.21
C[C@H](C#C[C@H]1CC[C@H](c2ccc(F)cc2)O1)N(O)C(N)=O	pIC50	5.51
NC(=O)N(O)CCCC[C@@H]1CC[C@@H](c2ccc(F)cc2)O1	pIC50	5.96
CC(C#C[C@@H]1CC[C@@H](c2ccc(F)cc2)O1)N(O)C(N)=O (relative stereo)	pIC50	5.55

(I) C[C@H](C#C[C@@H]1CC[C@@H](c2ccc(F)cc2)O1)N(O)C(N)=O
(II) C[C@@H](C#C[C@H]1CC[C@H](c2ccc(F)cc2)O1)N(O)C(N)=O
Of the pair I and II , name the member with the lesser recorded pIC50. Please identify the chosen entry by its label.
I
(I: 5.42, II: 5.70)
